What ABUTH damage score (0-5) was measured for each of the following?
Test system: ABUTH = Abutilon theophrasti
Experiment: Post-emergence herbicidal activity, glasshouse pot test
Assay type: in vivo
Set-up: key: 5=total damage to plant; 0=no damage to plant
Details: 1000 g/Ha, evaluated after 13 days
Just the number, please, no unit attached.

The compound COC[C@@H]1C(O)N(c2cc(C(C)(C)C)on2)C(=O)N1C (stereo partly shown) [Example A4] showed ABUTH damage score (0-5) equal to 5

Field ABUTH damage score (0-5) (entry CO[C@@H]1C(O)N(c2cc(C(C)(C)C)on2)C(=O)N1C (stereo partly shown) [Example A1] ) reads 5

The compound listed as CCO[C@@H]1C(O)N(c2cc(C(C)(C)F)on2)C(=O)N1C (stereo partly shown) [Example A5] has a reported ABUTH damage score (0-5) of 5

Measured ABUTH damage score (0-5) of CCO[C@@H]1C(O)N(c2cc(C(C)(C)C)on2)C(=O)N1C (single isomer, unassigned) [Example A2] : 5

====

Test system: ABUTH = Abutilon theophrasti
Experiment: Post-emergence herbicidal activity, glasshouse pot test
Type: in vivo
Set-up: key: 5=total damage to plant; 0=no damage to plant
Settings: comparison of enantiomers, 62.5 g/Ha
Could you please report measured ABUTH damage score (0-5) for the items listed next?

Simply: CCO[C@@H]1C(O)N(c2cc(C(C)(C)F)on2)C(=O)N1C (stereo partly shown) [Example A5] , ABUTH = Abutilon theophrasti, ABUTH damage score (0-5) = 5

Reported ABUTH damage score (0-5) (ABUTH = Abutilon theophrasti) for entry CCO[C@H]1C(O)N(c2cc(C(C)(C)F)on2)C(=O)N1C (stereo partly drawn) [A5 S-enantiomer, reference compound] is 0

The reported ABUTH damage score (0-5) value, ABUTH = Abutilon theophrasti, for COC[C@@H]1C(O)N(c2cc(C(C)(C)C)on2)C(=O)N1C (stereo partly shown) [Example A4] reads 1

Observed ABUTH damage score (0-5) on ABUTH = Abutilon theophrasti, entry CO[C@H]1C(O)N(c2cc(C(C)(C)C)on2)C(=O)N1C (stereo partly drawn) [A1 S-enantiomer, reference compound] , equals 0

====

Test system: ECHCG = Echinochloa crus-galli
Test: Pre-emergence herbicidal activity, glasshouse pot test
Assay type: in vivo
Details: 1000 g/Ha, evaluated after 13 days
Measurement Kind: ECHCG damage score (0-5)
Format: numeric value only, no unit, no commentary.

Kindly note the recorded ECHCG damage score (0-5) for CCO[C@@H]1C(O)N(c2cc(C(C)(C)C)on2)C(=O)N1C (single isomer, unassigned) [Example A2] , which is 4

Quick note, ECHCG damage score (0-5) for CO[C@@H]1C(O)N(c2cc(C(C)(C)C)on2)C(=O)N1C (stereo partly shown) [Example A1] landed at 5

Lab book: ECHCG damage score (0-5) of COC[C@@H]1C(O)N(c2cc(C(C)(C)C)on2)C(=O)N1C (stereo partly shown) [Example A4] noted as 5

// sample CCO[C@@H]1C(O)N(c2cc(C(C)(C)F)on2)C(=O)N1C (stereo partly shown) [Example A5] , its ECHCG damage score (0-5) was 5

====

So I've got a bunch of compounds here, and I need their AMARE damage score (0-5) values.
System: AMARE = Amaranthus retroflexus
Assay: Post-emergence herbicidal activity, glasshouse pot test
Format: in vivo
Design: key: 5=total damage to plant; 0=no damage to plant
Conditions: comparison of enantiomers, 62.5 g/Ha

Bench note, AMARE = Amaranthus retroflexus: CO[C@@H]1C(O)N(c2cc(C(C)(C)C)on2)C(=O)N1C (some centres unmarked) , AMARE damage score (0-5) reads 5

Lab note: compound COC[C@H]1C(O)N(c2cc(C(C)(C)C)on2)C(=O)N1C (stereo partly drawn) [A4 S-enantiomer, reference compound] tested on AMARE = Amaranthus retroflexus; recorded AMARE damage score (0-5) was 0

The reported AMARE = Amaranthus retroflexus AMARE damage score (0-5) of CCO[C@@H]1C(O)N(c2cc(C(C)(C)C)on2)C(=O)N1C (single isomer, unassigned) is 5

Entry COC[C@@H]1C(O)N(c2cc(C(C)(C)C)on2)C(=O)N1C (some centres unmarked) ; assay system AMARE = Amaranthus retroflexus; AMARE damage score (0-5) recorded at 5

Reported AMARE = Amaranthus retroflexus AMARE damage score (0-5) for item CCO[C@H]1C(O)N(c2cc(C(C)(C)C)on2)C(=O)N1C (single isomer, unassigned) [A2 S-enantiomer, reference compound] was 5

Lab entry: AMARE = Amaranthus retroflexus assay, compound CO[C@H]1C(O)N(c2cc(C(C)(C)C)on2)C(=O)N1C (stereo partly drawn) [A1 S-enantiomer, reference compound] , AMARE damage score (0-5) = 5

Value sought: AMARE damage score (0-5), system AMARE = Amaranthus retroflexus, item CCO[C@H]1C(O)N(c2cc(C(C)(C)F)on2)C(=O)N1C (stereo partly drawn) [A5 S-enantiomer, reference compound] . Result: 1

Item: CCO[C@@H]1C(O)N(c2cc(C(C)(C)F)on2)C(=O)N1C (some centres unmarked) | System: AMARE = Amaranthus retroflexus | AMARE damage score (0-5): 5

====

Test system: ZEAMX = Zea mays
Assay: Pre-emergence herbicidal activity, glasshouse pot test
Format: in vivo
Design: key: 5=total damage to plant; 0=no damage to plant
Details: comparison of enantiomers, 250 g/Ha
Kindly state ZEAMX damage score (0-5) for each of the entries shown.
Please give only the number in your answer, with no unit.

// ZEAMX damage score (0-5) lookup, compound = COC[C@H]1C(O)N(c2cc(C(C)(C)C)on2)C(=O)N1C (stereo partly drawn) [A4 S-enantiomer, reference compound] , result: 0

The compound identified as CCO[C@@H]1C(O)N(c2cc(C(C)(C)F)on2)C(=O)N1C (some centres unmarked) [Example A5] registered its ZEAMX damage score (0-5) at 5

Item: CCO[C@@H]1C(O)N(c2cc(C(C)(C)C)on2)C(=O)N1C (single isomer, unassigned) [Example A2] | ZEAMX damage score (0-5): 4

Sure, the documented ZEAMX damage score (0-5) for CO[C@@H]1C(O)N(c2cc(C(C)(C)C)on2)C(=O)N1C (some centres unmarked) [Example A1] is 5

ZEAMX damage score (0-5) measured on CCO[C@H]1C(O)N(c2cc(C(C)(C)F)on2)C(=O)N1C (stereo partly drawn) [A5 S-enantiomer, reference compound] = 0

The reported value for CCO[C@H]1C(O)N(c2cc(C(C)(C)C)on2)C(=O)N1C (single isomer, unassigned) [A2 S-enantiomer, reference compound] in terms of ZEAMX damage score (0-5) is 1

Reported ZEAMX damage score (0-5) for COC[C@@H]1C(O)N(c2cc(C(C)(C)C)on2)C(=O)N1C (some centres unmarked) [Example A4] was 4

What the record says about CO[C@H]1C(O)N(c2cc(C(C)(C)C)on2)C(=O)N1C (stereo partly drawn) [A1 S-enantiomer, reference compound] : ZEAMX damage score (0-5) is 0

====

Tested on: SETFA = Setaria faberi
Test: Pre-emergence herbicidal activity, glasshouse pot test
Assay type: in vivo
Set-up: key: 5=total damage to plant; 0=no damage to plant
Settings: comparison of enantiomers, 62.5 g/Ha
Measurement Kind: SEFTA damage score (0-5)

For record CCO[C@H]1C(O)N(c2cc(C(C)(C)F)on2)C(=O)N1C (stereo partly drawn) [A5 S-enantiomer, reference compound] the listed SEFTA damage score (0-5) is 0

Summary for this molecule, CO[C@@H]1C(O)N(c2cc(C(C)(C)C)on2)C(=O)N1C (some centres unmarked) : SEFTA damage score (0-5) is 4

// sample COC[C@H]1C(O)N(c2cc(C(C)(C)C)on2)C(=O)N1C (stereo partly drawn) [A4 S-enantiomer, reference compound] , its SEFTA damage score (0-5) was 0

Reported SEFTA damage score (0-5) for CO[C@H]1C(O)N(c2cc(C(C)(C)C)on2)C(=O)N1C (stereo partly drawn) [A1 S-enantiomer, reference compound] was 0

Lab note: measured SEFTA damage score (0-5) of CCO[C@@H]1C(O)N(c2cc(C(C)(C)F)on2)C(=O)N1C (some centres unmarked) was 5

====

Test system: ABUTH = Abutilon theophrasti
Test: Pre-emergence herbicidal activity, glasshouse pot test
Type: in vivo
Set-up: key: 5=total damage to plant; 0=no damage to plant
Conditions: comparison of enantiomers, 250 g/Ha
// boundary case: ABUTH damage score (0-5) equal to 1 maps to not fulfilled; strictly smaller maps to fulfilled

INPUT: Consider the molecule CCO[C@H]1C(O)N(c2cc(C(C)(C)F)on2)C(=O)N1C (stereo partly drawn) [A5 S-enantiomer, reference compound] . Is its ABUTH damage score (0-5) strictly less than 1?
OUTPUT: fulfilled

INPUT: Quick check: does CCO[C@@H]1C(O)N(c2cc(C(C)(C)C)on2)C(=O)N1C (single isomer, unassigned) [Example A2] have ABUTH damage score (0-5) under 1?
OUTPUT: not fulfilled

INPUT: Given CCO[C@@H]1C(O)N(c2cc(C(C)(C)F)on2)C(=O)N1C (some centres unmarked) [Example A5] , is recorded ABUTH damage score (0-5) strictly lower than 1?
OUTPUT: not fulfilled

INPUT: For CO[C@H]1C(O)N(c2cc(C(C)(C)C)on2)C(=O)N1C (stereo partly drawn) [A1 S-enantiomer, reference compound] , is the recorded ABUTH damage score (0-5) below the cut-off of 1?
OUTPUT: fulfilled

INPUT: Please state whether ABUTH damage score (0-5) is below 1 for COC[C@@H]1C(O)N(c2cc(C(C)(C)C)on2)C(=O)N1C (some centres unmarked) [Example A4]
OUTPUT: not fulfilled

INPUT: Find out if reported ABUTH damage score (0-5) for CO[C@@H]1C(O)N(c2cc(C(C)(C)C)on2)C(=O)N1C (some centres unmarked) [Example A1] is less than 1
OUTPUT: not fulfilled

INPUT: Please let me know if COC[C@H]1C(O)N(c2cc(C(C)(C)C)on2)C(=O)N1C (stereo partly drawn) [A4 S-enantiomer, reference compound] shows ABUTH damage score (0-5) below 1.
OUTPUT: fulfilled
